Target: UniProt:P07711
Sequence (P07711 114-288 limits assumed): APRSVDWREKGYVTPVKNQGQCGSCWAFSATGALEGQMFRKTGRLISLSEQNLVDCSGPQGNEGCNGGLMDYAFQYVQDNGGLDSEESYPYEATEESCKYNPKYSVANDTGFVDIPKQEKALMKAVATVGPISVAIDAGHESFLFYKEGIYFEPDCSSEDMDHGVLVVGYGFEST
Sequence (P07711 292-333 limits assumed): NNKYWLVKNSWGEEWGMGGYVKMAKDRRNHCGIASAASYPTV
observable: pKi
Give bare numbers, as −log10 of the molar value.

- compound: "CC(C)(C)[C@H](NC(=O)NC1(CS(=O)(=O)C(C)(C)C)CCCCC1)C(=O)N1C[C@H]2[C@@H]([C@H]1C(=O)N[C@@H](CCC1CC1)C(=O)C(=O)NC1CC1)C2(C)C [drawing 662]"
  pKi: 7.60
- compound: "CCCC(NC(=O)[C@@H]1C[C@@H]2CN1C(=O)C(C1CCCCC1)NC(=O)Cc1cccc(c1)OCCCC(C)(C)C2)C(=O)C(N)=O (stereo partly shown)"
  pKi: 7.77
- compound: "CCCC[C@H](NC(=O)[C@@H]1[C@@H]2[C@H](CN1C(=O)[C@@H](NC(=O)NC1(CS(=O)(=O)C(C)C)CCCCC1)C(C)(C)C)C2(C)C)C(=O)C(=O)NC1CC1"
  pKi: 7.42
- compound: "C=CCNC(=O)C(=O)[C@@H]1CCCCCCCCC[C@H](NC(=O)NC2(CS(=O)(=O)C(C)(C)C)CCCCC2)C(=O)N2C[C@H]3[C@@H]([C@H]2C(=O)N1)C3(C)C [drawing 653]"
  pKi: 8.00
- compound: "CCC[C@H](NC(=O)[C@@H]1[C@@H]2[C@H](CN1C(=O)[C@@H](NC(=O)NC1([C@H]3CCCS3(=O)=O)CCCCC1)C1(C)CCCCC1)C2(C)C)C(=O)C(=O)NC1CC1"
  pKi: 7.51

Would you mind listing pKi for each of the following compounds?
1. CCCC[C@H](NC(=O)[C@@H]1[C@@H]2[C@H](CN1C(=O)[C@@H](NC(=O)NC1([C@H]3CCN(C)S3(=O)=O)CCCCC1)C(C)(C)C)C2(C)C)C(=O)C(=O)NC1CC1
2. C=CCNC(=O)C(=O)C(CCC)NC(=O)[C@@H]1[C@@H]2[C@H](CN1C(=O)[C@@H](NC(=O)N[C@H](CN1CCCCC1=O)C(C)(C)C)C1Cc3ccccc3C1)C2(C)C (stereo partly shown)

1. 7.40
2. 6.85
